Reference source: the supplement of paper PMC9170038

Field: apparent KD of K4 kissing-loop reporter. Provide a value for each of the sequences that follow.
Tested on: K4 kissing-loop RNA reporter
procedureText: apparent KD of K4 kissing-loop reporter; higher = weaker reporter binding
conditionDetails: Eterna round: R107; input ligand: arginine 13.2 mM
Give the value, in units of µM, as a plain number.

In: # get_value(readout= apparent KD of K4 kissing-loop reporter, system= K4 kissing-loop RNA reporter) for UGAUACCAGACGGCCGCCACUCCUGCAGUCAAAGACUGCAAGGAAAUAUUCGUCCAGUGAUGUUGGAGGACCGGGUCUGGUAUCU [TrypBX 9 #SwitchBubble #Palindromic #StaticStem]
Out: 0.687

In: Find the measured apparent KD of K4 kissing-loop reporter: item AAAACUAUCAGAAGGAGCGUGGAAUAUUCAUCUGUAUUUAAUACGAGUGAUGUUCGUAAUUCACAGGUAGGUCGCUGAUCAAUAA [whbob_Ex_Arginine_B_2th154] , target or system K4 kissing-loop RNA reporter.
Out: 0.253

In: For K4 kissing-loop RNA reporter, provide apparent KD of K4 kissing-loop reporter of GGUGCUGUUUGUGCCGCCUUCCUCGUUCCUCGAGGACCGGUACGGCCGCCACUCGAGUGAUGUUUGGGUAGCGAUCCCUGCUAGC [Bdazzled - #14 Exc. Tryptophan A] please.
Out: 0.538

In: Find apparent KD of K4 kissing-loop reporter (K4 kissing-loop RNA reporter) for the entry UAGACCUACUCAGGAUAUCCGCAGUGAUGUUGCGGUUGGCCUGAGCGACAUGAAAAUCUUACUAAAGGAGAAGGGAGAGGGUUAC [Ratiteus]
Out: 0.0792

In: Record AACUGUCAAGGAACUUGCAACAAAGGUGAUACCAGCAUCGAAAGAUGCCCUUGGCAGCACCAACUUGCAGUGAUGUUGCAAGUAA [(T)'-(H)'-(T1)-(T2)-(H1)-(H2)_Design7] : what is its apparent KD of K4 kissing-loop reporter with K4 kissing-loop RNA reporter?
Out: 0.243

* * *

System: MS2 coat protein
procedureText: apparent KD of MS2 coat protein; designed switch direction (-1 OFF switch, 1 ON switch): -1; higher = weaker reporter binding
conditionDetails: input ligand: FMN 200 uM
assayReadout: apparent KD of MS2 coat protein (nM)
# number only, unit nM dropped from output

In: Using the record for GGUUUUUCUGAGGAUAUUGCAUCACCCGAUUUAUAAGAAGGCAGAACAUGAGGAUCACCCAUGUGGGUCUCUAG [Bingo-Bango-27] (Eterna round: R97, puzzle: Exclusion 6) , report its apparent KD of MS2 coat protein.
Out: 24.4

In: Which apparent KD of MS2 coat protein is reported for this sequence? UCCUCACCCAAGGAUAUCUGAGUCGGAACUAGCAGAGAAGGUGGCACAUGAGGAUCACCCAUGUAGACCAAUGC [Eternabot (L2) Solution 9] (Eterna round: R97, puzzle: Exclusion 6)
Out: 7.87

In: Fill blank: measured apparent KD of MS2 coat protein of the sequence ACCUCACAUGAGGAUCACCCAUGUCAGGAUAUAUUGUGCAAGCGCCGUGGCGUAUGUAGUAGAAGGGACGAAAC [Eternabot (L1) Solution 77] (Eterna round: R97, puzzle: Exclusion 1) is ____.
Out: 18.3

* * *

Test system: K4 kissing-loop RNA reporter
procedureText: apparent KD of K4 kissing-loop reporter; higher = weaker reporter binding
conditionDetails: Eterna round: R107; input ligand: tryptophan 2.4 mM
assayReadout: apparent KD of K4 kissing-loop reporter
Hi, when you answer, please include the unit after the number. Thanks!

In: Observed apparent KD of K4 kissing-loop reporter on K4 kissing-loop RNA reporter for CGUCACACUUGAUGGUUAUCCAAUGAUGAUACCAGCCGUCGAGAUGGCCCUUGGCAGCAUGUGGUACAGUGAUGUUGUACAUUGG [theeternabot_sameState_KL_Theo_A_30] , please.
Out: 258 nM

In: Report apparent KD of K4 kissing-loop reporter for UGAUAGGACAGAAGGAGCGGAAUGCUGUCCAAAAGGACAGCAAAUAUAACAGGAGUGAUGUUCCAGGUAGGUCGCUGUCCUAUCU [ArgBX 21 #SwitchBubble #StaticStem] tested on K4 kissing-loop RNA reporter.
Out: 187 nM

In: Give recorded apparent KD of K4 kissing-loop reporter with K4 kissing-loop RNA reporter for the following sequence: AAACAUUGGUCUGAUACCAGCUGAUCGGAAACGAUCUUGCUGGAGUGAUGUUCCAAGUAAAGCCCUUGGCAGCAGACCGAUGAAA [MAT - Same State Theophlline B - Mod of Eli - D19]
Out: 81.8 nM

In: // lookup apparent KD of K4 kissing-loop reporter | system=K4 kissing-loop RNA reporter | key= UGAGGAGAUUAUGAUACCAGCAGAGAGAGAGAGGAAGUAUAGUGAUGUUAUAUGAGAUAAUGCCCUUGGCAGCAUAAGAAGAAGG [#20 K4 Theophylline B Same State]
Out: 140 nM

In: Param readout = apparent KD of K4 kissing-loop reporter; param system = K4 kissing-loop RNA reporter; param query = GACUGGUUAACAGAUACCAGCCACAAGCGUUGAGGCGGCGGUAAAGUGAUGUUUUAUAAAGGCCCUUGGCAGCUGACUAGUUCGU [theeternabot_exclusion_KL_Theo_B_28] ; response: value
Out: 324 nM

In: apparent KD of K4 kissing-loop reporter of GUGCGCGCGGCGGCCGCCACUCGCAUGAGAGUGAUGUUCUCGGGACUGACGCAAGUCAGUCAUGUGAGGACCGGGCCGGGCUGCG [#2 Same State - Tryptophan B Attempt #12 (HarryS)] on K4 kissing-loop RNA reporter?
Out: 423 nM

In: Reported apparent KD of K4 kissing-loop reporter for K4 kissing-loop RNA reporter, given CAUAGUCACUGUGAUACCAGCCCGACUCUUGGCGUCUGCGGUCAAAGCCCAGUGAUGUUGGGCCCUUGGCAGCAUGGCGGCAACA [Xelexebi] ?
Out: 120 nM

In: # value lookup — system K4 kissing-loop RNA reporter, readout apparent KD of K4 kissing-loop reporter, item UGUCAUUGGUCGGCCGCCACUCCGUAACGAGUGAUGUUCUAAAAGACGGAUCGAAAGAUCUGUCGGAGGACCGGGACCGAUGACU [FiskerMod 7 - Jieux - Same State - Tryptophan B]
Out: 900 nM

In: Query for K4 kissing-loop RNA reporter: what apparent KD of K4 kissing-loop reporter does the record show for AUAUUUAUUUAGUCACUUUUAAUAUUAUGUCAGGAUAUCGUAAUUUCGAGAAGGGACUCAUGCUAGUGAUGUUAGCUAAUUCUCA [JR_Nu3_ExcFMNA_Sub023] ?
Out: 110 nM

In: Lab request: please report apparent KD of K4 kissing-loop reporter under test system K4 kissing-loop RNA reporter for UUGCCUCUGGCUGAUACCAGUGAUGCAGGGUAUGAAACAGGGAGUGAUGUUCCCUGCAGCCACCCUUGGCAGCAGUUUAAGUUUG [Exclusion Theophylline B GF 21]
Out: 160 nM

In: Please tell me: apparent KD of K4 kissing-loop reporter of UGACUGGACUGAAGGAGCGCUGAACUCCUAGUGAUGUUAGGACAACGAGACAAAGUCUCGCGGCAGGUAGGUCGCAGUCUAGUCU , system K4 kissing-loop RNA reporter?;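 further: bound reporter read as fluorescence of individual clusters on recovered sequencing chips by microscopy, with normalized cluster intensities fitted with a binding model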
Out: 131 nM
